The reported measurements were obtained from ChEMBL document CHEMBL1133323.

# Tested on: U-87 MG
# TEST: In vitro cytotoxicity against human glioblastoma (U-87-MG) cell line
# Type: functional, U-87MG ATCC
# MEASUREMENT CONDITIONS: read-out: ED50 (the source's name)
ATTRIBUTE MEASURED: EC50

Below, 3 compounds whose answers are already recorded.
{"COMPOUND": "Cc1ccccc1/C=C/C(=O)c1ccccc1N", "MEASURED ON": "U-87 MG", "EC50": "> 10 µg/mL"}
{"COMPOUND": "Cc1ccccc1C1OC1C(=O)c1ccccc1N (centres undefined)", "MEASURED ON": "U-87 MG", "EC50": "> 20 µg/mL"}
{"COMPOUND": "Nc1cc2c(cc1C(=O)/C=C/c1ccc(F)cc1)OCO2", "MEASURED ON": "U-87 MG", "EC50": "> 10 µg/mL"}

# get_value(readout= EC50, system= U-87 MG) for COc1cccc(/C=C/C(=O)c2ccc3c(c2)OCO3)c1
> 20 µg/mL

----------
Catalogue of molecules with associated EC50
# Tested on: HOS
# TEST: In vitro cytotoxicity against human osteosarcoma (Hos) cell line
# Assay type: functional
# MEASUREMENT CONDITIONS: read-out: ED50 (the source's name)
Response body: numeric value in µg/mL, unit text excluded.

Below, 2 molecules whose answers are already recorded.
{"MOLECULE": "Cc1ccccc1/C=C/C(=O)c1ccccc1N", "EC50, µg/mL": 4}
{"MOLECULE": "Nc1cc2c(cc1C(=O)C1OC1c1ccccc1F)OCO2 (stereo not drawn)", "EC50, µg/mL": 4}

Quick check: EC50 of Nc1cc2c(cc1C(=O)/C=C/c1ccccc1F)OCO2 ?
4
